Molecular target: human DP1 receptor (Homo sapiens, UniProt Q13258)
Construct: expressed in transfected cells
Sequence (Q13258 whole entry): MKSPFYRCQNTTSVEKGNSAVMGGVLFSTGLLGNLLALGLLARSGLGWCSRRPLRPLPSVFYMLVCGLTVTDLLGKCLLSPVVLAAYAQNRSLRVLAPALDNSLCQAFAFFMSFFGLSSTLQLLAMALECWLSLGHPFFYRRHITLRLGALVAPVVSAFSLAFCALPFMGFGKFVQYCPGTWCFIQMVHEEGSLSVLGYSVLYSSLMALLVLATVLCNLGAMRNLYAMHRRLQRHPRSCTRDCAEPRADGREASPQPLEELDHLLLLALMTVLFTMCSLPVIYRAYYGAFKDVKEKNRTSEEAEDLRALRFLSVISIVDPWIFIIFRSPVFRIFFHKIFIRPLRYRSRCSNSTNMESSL
Test: HTRF cAMP assay, recombinant human DP1 receptor in CHO-K1 cells
Format: cell-based
Details: HTRF (cAMP) human DP1 receptor assay; mean of at least three determinations; read-out: EC50 hDP1
Method: The new compounds were tested for functional agonist activity in a standard (Cisbio) cAMP assay using recombinant IP or DP1 receptors stably expressed in CHO-K1 cells. […] For development of cAMP accumulation assays, recombinant IP or DP1 receptors were stably expressed in CHO-K1 cells and clonal cell lines derived following standard protocols. […] Plates were then incubated at room temperature for 1 h prior to reading. […]
The entries below come with measured pEC50 values attached.
Please keep in mind that pEC50 is minus log10 of the molar concentration; only the number is needed.

Some compounds with recorded pEC50:
In [3]: df
Out[3]:
                                   compound  datavalue
0  COc1ccc(N(C(=O)OC[C@H]2CC[C@H](COCC(=O)O)CC2)c2cccc(F)c2)cc1       5.99
1  O=C(O)COC[C@H]1CC[C@H](COC(=O)N(c2ccccc2)c2ccccc2)CC1       6.45
2  CC#CCC(C)[C@H](O)/C=C/[C@@H]1[C@H]2C/C(=C/CCCC(=O)O)C[C@H]2C[C@H]1O (stereo partly shown)       6.83

Please turn your attention to the following entry.
Write down pEC50 measured for item CC(C)N(CCCCOCC(=O)O)c1cnc(-c2ccccc2)c(-c2ccccc2)n1 6.81

###

The entries below come with measured AUC(0-inf) values attached.
test: Rat PK (iv and oral); assay type: in vivo; conditions: Sprague-Dawley, plasma, after oral administration 10 mg/kg (5m 10.5)
State just the number; it will be interpreted in ng·h/mL.

Some compounds with recorded AUC(0-inf):
In [3]: df
Out[3]:
                                  molsmiles  datavalue
0  O=C(O)COC[C@H]1CC[C@H](COC(=O)N(c2ccccc2)c2ccc(F)c(F)c2)CC1       4500
1  COc1cccc(N(C(=O)OC[C@H]2CC[C@H](COCC(=O)O)CC2)c2ccccc2)c1       1900

Please turn your attention to the following entry.
Write down AUC(0-inf) measured for item O=C(O)COC[C@H]1CC[C@H](COC(=O)N(c2ccccc2)c2ccc(F)cc2)CC1 7900

###

target: dog IP (Canis lupus familiaris, UniProt A0A8I3MUB8); experiment: Radioligand binding, dog IP ([3H]-iloprost); settings: read-out: Ki dog IP ([3H]-iloprost)
Sequence (A0A8I3MUB8 1-381): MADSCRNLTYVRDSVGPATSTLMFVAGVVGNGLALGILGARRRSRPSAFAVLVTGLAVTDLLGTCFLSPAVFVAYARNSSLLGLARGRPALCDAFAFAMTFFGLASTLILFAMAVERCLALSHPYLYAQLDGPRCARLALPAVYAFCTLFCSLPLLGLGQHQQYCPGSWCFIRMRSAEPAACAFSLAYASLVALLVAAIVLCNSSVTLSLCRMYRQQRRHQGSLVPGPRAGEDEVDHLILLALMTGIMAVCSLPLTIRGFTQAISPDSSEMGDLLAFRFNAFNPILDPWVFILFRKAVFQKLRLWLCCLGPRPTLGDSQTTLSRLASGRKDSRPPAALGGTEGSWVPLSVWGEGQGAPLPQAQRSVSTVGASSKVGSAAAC
testReadout: Ki (nM)
State just the number; it will be interpreted in nM.

>>> df
                                  molsmiles  testreadout  datavalue
0  O=C(O)COC[C@H]1CC[C@H](COC(=O)N(c2ccccc2)c2ccc(Cl)cc2)CC1           Ki        256

Please turn your attention to the following entry.
Write down Ki measured for item O=C(O)COC[C@H]1CC[C@H](COC(=O)N(c2ccccc2)c2cccc(F)c2)CC1 183

###

molecular target: human DP1 receptor (Homo sapiens, UniProt Q13258); construct: expressed in transfected cells; assay: HTRF cAMP assay, recombinant human DP1 receptor in CHO-K1 cells; type: cell-based; conditions: CHO-K1; intrinsic activity relative to 1 μM PGD2; read-out: hDP1 % IA
Label T when Emax is at or above 50%; otherwise label F.

See these solved cases before continuing.
In [3]: df
Out[3]:
                                   molecule                              systemtested  assignedcategory
0  O=C(O)COC[C@H]1CC[C@H](COC(=O)N(c2ccccc2)c2cccc(F)c2)CC1 [5g]  human DP1 receptor (Homo sapiens, UniProt Q13258)                 T
1  O=C(O)COC[C@H]1CC[C@H](COC(=O)N(c2ccccc2)c2ccc(Cl)c(F)c2)CC1 [5m]  human DP1 receptor (Homo sapiens, UniProt Q13258)                 F
2  CC(C)N(CCCCOCC(=O)NS(C)(=O)=O)c1cnc(-c2ccccc2)c(-c2ccccc2)n1 [compound 1, selexipag, reference compound]  human DP1 receptor (Homo sapiens, UniProt Q13258)                 F
3  O=C(O)COC[C@H]1CC[C@@H](COC(=O)N(c2ccccc2)c2ccccc2)CC1 [5b]  human DP1 receptor (Homo sapiens, UniProt Q13258)                 T

For the next question, use this molecule.
Please check the record O=C(O)COC[C@H]1CC[C@H](COC(=O)N(c2ccccc2)c2cccc(Cl)c2)CC1 [5i] and state if its Emax is at or above 50%. F

###

target: EP3v6 (Homo sapiens); assay: Radioligand binding, EP3v6 ([3H]-PGE2); parameters: purchased MDS Pharma (Taiwan) and CEREP (France), contract assays; settings: cloned human receptor
Sequence (P43115 1-374 isoform P43115-4): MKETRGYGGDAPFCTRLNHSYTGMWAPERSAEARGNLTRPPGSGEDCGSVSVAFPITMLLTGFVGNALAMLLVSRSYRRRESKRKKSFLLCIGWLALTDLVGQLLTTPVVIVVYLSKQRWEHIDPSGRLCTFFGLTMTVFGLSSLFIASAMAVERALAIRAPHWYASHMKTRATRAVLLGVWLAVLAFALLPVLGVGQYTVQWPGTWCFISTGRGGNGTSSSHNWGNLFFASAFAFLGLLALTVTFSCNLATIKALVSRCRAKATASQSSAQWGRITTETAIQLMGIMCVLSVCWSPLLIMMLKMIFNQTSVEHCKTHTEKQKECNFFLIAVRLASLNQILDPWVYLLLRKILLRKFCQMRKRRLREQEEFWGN
testReadout: Ki
Write the numeric value and follow it with the unit.

In [3]: df
Out[3]:
                                   compound  datavalue
0  O=C(O)COC[C@H]1CC[C@H](COC(=O)N(c2ccccc2)c2cccc(F)c2)CC1     210 nM
1  O=C(O)COC[C@H]1CC[C@H](COC(=O)N(c2ccccc2)c2ccc(Cl)cc2)CC1     143 nM

Please turn your attention to the following entry.
Write down Ki measured for item CC#CCC(C)[C@H](O)/C=C/[C@@H]1[C@H]2C/C(=C/CCCC(=O)O)C[C@H]2C[C@H]1O (stereo partly drawn) 3700 nM

###

target: EP4 (Homo sapiens, UniProt P35408)
Sequence (P35408 whole entry): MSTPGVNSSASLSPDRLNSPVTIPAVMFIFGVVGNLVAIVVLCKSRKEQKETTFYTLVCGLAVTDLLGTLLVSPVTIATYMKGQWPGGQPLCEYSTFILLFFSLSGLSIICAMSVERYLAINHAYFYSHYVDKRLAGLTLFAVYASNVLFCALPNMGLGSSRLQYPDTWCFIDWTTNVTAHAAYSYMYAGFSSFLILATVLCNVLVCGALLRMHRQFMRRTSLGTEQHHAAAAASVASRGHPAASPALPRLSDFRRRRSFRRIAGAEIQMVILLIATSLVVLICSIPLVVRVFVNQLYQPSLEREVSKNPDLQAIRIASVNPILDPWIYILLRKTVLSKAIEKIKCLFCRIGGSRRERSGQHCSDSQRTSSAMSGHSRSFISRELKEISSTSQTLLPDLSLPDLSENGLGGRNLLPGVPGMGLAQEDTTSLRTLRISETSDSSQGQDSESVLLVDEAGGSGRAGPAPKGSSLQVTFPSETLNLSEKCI
testReadout: Ki (µM)
State just the number; it will be interpreted in µM.

Write down Ki measured for item O=C(O)COC[C@H]1CC[C@H](COC(=O)N(c2ccccc2)c2cccc(F)c2)CC1 1.2

###

The entries below come with measured pKi values attached.
target: DP1 (Homo sapiens, UniProt Q13258)
Sequence (Q13258 whole entry): as the sequence (Q13258 whole entry) above
Please keep in mind that pKi is minus log10 of the molar concentration; only the number is needed.

                                   compound  datavalue
0  O=C(O)COC[C@H]1CC[C@H](COC(=O)N(c2ccccc2)c2ccc(Cl)cc2)CC1 [5c]       5.59

Please turn your attention to the following entry.
Enter pKi (test system DP1 (Homo sapiens, UniProt Q13258)) for O=C(O)COC[C@H]1CC[C@H](COC(=O)N(c2ccccc2)c2cccc(F)c2)CC1 [5g] 5.73

###

experiment: Monkey PK (iv and oral); assay type: in vivo, cynomolgus monkeys; settings: cynomolgus monkey, plasma, oral, 0.1 mg/kg; read-out: elimination half-life in monkey (converted)
testReadout: half-life (h)
State just the number; it will be interpreted in h.

Write down half-life measured for item O=C(O)COC[C@H]1CC[C@H](COC(=O)N(c2ccccc2)c2ccc(Cl)cc2)CC1 18

###

assay: Rat PK (iv and oral); assay type: in vivo; settings: total clearance, iv 2 mg/kg (5m 2.1)
The entries below come with measured Clobs values attached.
State just the number; it will be interpreted in L h^–1 kg^–1.

Some compounds with recorded Clobs:
>>> df
                                   compound  datavalue
0  O=C(O)COC[C@H]1CC[C@H](COC(=O)N(c2ccccc2)c2ccc(Cl)c(F)c2)CC1 [5m]        0.8
1  COc1ccc(N(C(=O)OC[C@H]2CC[C@H](COCC(=O)O)CC2)c2ccccc2)cc1 [5e]        3.4
2  O=C(O)COC[C@H]1CC[C@H](COC(=O)N(c2ccccc2)c2ccc(F)c(F)c2)CC1 [5o]        0.6
3  O=C(O)COC[C@H]1CC[C@H](COC(=O)N(c2ccccc2)c2ccc(F)cc2)CC1 [5l]        1.8
4  O=C(O)COC[C@H]1CC[C@H](COC(=O)N(c2ccccc2)c2ccc(Cl)cc2)CC1 [5c]       0.43
5  COc1cccc(N(C(=O)OC[C@H]2CC[C@H](COCC(=O)O)CC2)c2ccccc2)c1 [5j]        5.1

Please turn your attention to the following entry.
Write down Clobs measured for item O=C(O)COC[C@H]1CC[C@H](COC(=O)N(c2ccccc2)c2cccc(F)c2)CC1 [5g] 1.2

###

assay: Rat PK (iv and oral); assay type: in vivo; conditions: po 10 mg/kg (5m 10.5)
The entries below come with measured Cmax values attached.
State just the number; it will be interpreted in µg/mL.

Some compounds with recorded Cmax:
                                  molsmiles  scaleunit  datavalue
0  O=C(O)COC[C@H]1CC[C@H](COC(=O)N(c2ccccc2)c2cccc(F)c2)CC1      µg/mL        3.4
1  O=C(O)COC[C@H]1CC[C@H](COC(=O)N(c2ccccc2)c2ccc(F)c(F)c2)CC1      µg/mL       1.43
2  COc1ccc(N(C(=O)OC[C@H]2CC[C@H](COCC(=O)O)CC2)c2ccccc2)cc1      µg/mL       0.95
3  O=C(O)COC[C@H]1CC[C@H](COC(=O)N(c2ccccc2)c2ccc(Cl)c(F)c2)CC1      µg/mL        3.0
4  O=C(O)COC[C@H]1CC[C@H](COC(=O)N(c2ccccc2)c2ccc(F)cc2)CC1      µg/mL        1.2

Write down Cmax measured for item COc1cccc(N(C(=O)OC[C@H]2CC[C@H](COCC(=O)O)CC2)c2ccccc2)c1 0.9

Write down Cmax measured for item O=C(O)COC[C@H]1CC[C@H](COC(=O)N(c2ccccc2)c2ccc(Cl)cc2)CC1 3.7
